Ref: patent US20250313574A1

MEASUREMENT_TARGET: Recombinant human CD33 protein (Homo sapiens (Human), UniProt P20138)
PROCEDURE_SUMMARY: CD33 competitive binding assay for HTS drug screen (fluorescent multivalent sialic acid probe)
Recorded EC50, one value per entry.
Reply with just the number (in nM).

1) Cc1cc(C(=O)NC[C@@H](O)C[C@H]2CC[C@H](C)[C@](CCN3CCOC[C@@]34CCN(C(=O)OC(C)(C)C)C4)(C(=O)O)O2)cc2cc[nH]c12 [A-216]; 12200
2) CC(=O)N[C@H]1[C@H]([C@H](O)[C@H](O)CNC(=O)c2cc(C)c(O)c(C)c2)O[C@@](CCN2CCN(C)C[C@]23CCN(C(=O)OC(C)(C)C)C3)(C(=O)O)C[C@@H]1O [A-011]; 1630

The reported value for CC(=O)N[C@H]1[C@H]([C@H](O)[C@H](O)CNC(=O)c2cc(C)c(O)c(C)c2)O[C@@](CCN2CCOC[C@@]23CCN(C(=O)N2CCC(F)(F)CC2)C3)(C(=O)O)C[C@@H]1O [A-065] in terms of EC50 is 739

Reported EC50 ( Cc1cc(C(=O)NC[C@@H](O)[C@@H](O)[C@@H]2O[C@@](C/C=C/c3cccc(CNC(=O)c4ccn(C)c(=O)c4)c3)(C(=O)O)C[C@H](O)[C@H]2NC(=O)Cn2cc(C3CCCCC3)nn2)cc(C)c1O [A-273] ) = 9940

Consider CC(=O)N[C@H]1[C@H]([C@H](O)[C@H](O)CNC(=O)c2ccc(C(F)(F)F)c(C(F)(F)F)c2)O[C@@](CCN2CCOC[C@@]23CCN(C(=O)OC(C)(C)C)C3)(C(=O)O)C[C@@H]1O [A-167] . Its measured EC50 is 3340

Input CNC(=O)c1c(C)cc(C(=O)NC[C@@H](O)[C@@H](O)[C@@H]2O[C@@](CCN3CCOC[C@@]34CCN(C(=O)OC(C)(C)C)C4)(C(=O)O)C[C@H](O)[C@H]2NC(C)=O)cc1C [A-164] . Output EC50: 1560

// recorded EC50 for CC(=O)N[C@H]1[C@H]([C@H](O)[C@H](O)CNC(=O)c2cc(C)c(O)c(C)c2)O[C@@](CCN2CCOC[C@@]23CCN(C(=O)NC(C)C(F)(F)F)C3)(C(=O)O)C[C@@H]1O (some centres unmarked) [A-044] : 19

// recorded EC50 for CC(=O)N[C@H]1[C@H]([C@H](O)[C@H](O)CNC(=O)c2cc(C)c(O)c(C)c2)O[C@@](C/C=C/c2cccc(CNC(=O)C3CCC(Nc4cnccn4)CC3)c2)(C(=O)O)C[C@@H]1O (some centres unmarked) [A-247] : 353

Notebook: CC(=O)N[C@H]1[C@H]([C@H](O)[C@H](O)CNC(=O)c2cc(C)c(O)c(C)c2)O[C@@](CC2OC(C)(C)O[C@H]2c2ccccc2CNC(=O)OC(C)(C)C)(C(=O)O)C[C@@H]1O (some centres unmarked) [A-310] , EC50 read as 3240

// CC(=O)N[C@H]1[C@H]([C@H](O)[C@H](O)CNC(=O)c2cc(C)c(O)c(C)c2)O[C@@](CCN2CCOC[C@@]23CCN(C(=O)C2CCCC2)C3)(C(=O)O)C[C@@H]1O [A-060] : EC50 value = 65

The recorded EC50 for Cc1cc(C(=O)NCC(O)C[C@@H]2O[C@@](CCN3CCOC[C@@]34CCN(C(=O)OC(C)(C)C)C4)(C(=O)O)CCC2C)cc(C)c1O (single isomer, unassigned) [A-214] is 9800

---

MEASUREMENT_TARGET: Recombinant Human Siglec-3/CD33 protein (His-CD33) (Homo sapiens (Human))
Sequence (P20138 18-259): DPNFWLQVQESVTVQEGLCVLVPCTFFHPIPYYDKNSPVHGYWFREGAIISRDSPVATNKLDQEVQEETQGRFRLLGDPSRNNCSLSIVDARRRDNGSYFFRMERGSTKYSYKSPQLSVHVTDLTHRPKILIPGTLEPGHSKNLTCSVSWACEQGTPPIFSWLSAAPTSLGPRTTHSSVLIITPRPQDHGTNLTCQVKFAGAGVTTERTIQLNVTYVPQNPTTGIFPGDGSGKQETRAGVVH
PROCEDURE_SUMMARY: Differential scanning fluorimetry (DSF) thermal shift assay
Assay type: binding
CONDITION_SET: difference in thermal melt of CD33 protein (0.5 μM) with 50 μM compound
READOUT: DSF (dTmD) (°C)
Expressed in °C, but write only the number.

Worked set:
1) CC(=O)N[C@H]1[C@H]([C@H](O)[C@H](O)CNC(=O)c2cc(C)c(O)c(C)c2)O[C@@](C/C=C/c2cccc(CNC(=O)c3ccc4[nH]c5c(c4c3)CCC(=O)N5C)c2)(C(=O)O)C[C@@H]1O [A-254]; 9.2
2) CC(=O)N[C@H]1[C@H]2O[C@](C(=O)O)(C/C=C/c3cccc(c3)[C@@H](NC(=O)[C@H]3CCCOC3)CCCCOc3c(C)cc(cc3C)C(=O)NC[C@@H](O)[C@H]2O)C[C@@H]1O [A-348]; 3.6
3) Cc1cc2cc(C)c1OCCCCNC(=O)CCCCCC[C@]1(C(=O)O)C[C@H](O)[C@@H](NC(=O)Cn3cc(C4CCCCC4)nn3)[C@@H](O1)[C@H](O)[C@H](O)CNC2=O [A-346]; 3.4
4) CC(=O)N[C@H]1[C@H]([C@H](O)[C@H](O)CNC(=O)c2cc(C)c(O)c(C)c2)O[C@@](CC2COC(C)(C)O2)(C(=O)O)C[C@@H]1O (stereo partly drawn) [A-307]; 0.0
5) CC(=O)N[C@H]1[C@H]([C@H](O)[C@H](O)CNC(=O)c2cc(C)c(O)c(C)c2)O[C@@](C/C=C/c2cccc(CNC(=O)c3ccc4[nH]c(CCO)cc4c3)c2)(C(=O)O)C[C@@H]1O [A-248]; 6.0

Now look at this one.
Reported DSF (dTmD) ( CC(=O)N[C@H]1[C@H]([C@H](O)[C@H](O)CNC(=O)c2cc(C)c(O)c(C)c2)O[C@@](CC2OC(C)(C)O[C@H]2c2ccc(C)c(N3CCCC3=O)c2)(C(=O)O)C[C@@H]1O (stereo partly drawn) [A-319] ) = 2.8
